B1: TRIM35 (parent)
chain: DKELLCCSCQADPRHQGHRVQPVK

- Variants of: B1
- TEST_METHOD_NOTES: protein stability index of a GFP-peptide fusion (GPS, HEK-293T) (PSI 1-6); higher = more stable;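 also: lentivirally expressed fusions sorted by FACS into six bins by GFP to DsRed ratio, PSI derived from sequencing read proportions per bin multiplied by bin number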
- CONDITION_LABEL: c terminus: a fixed tail appended
Some variants, each annotated with its measured protein stability index.
METRIC_NAME: protein stability index

VARIANT_KEY	RESULT_NUMBER
C6P	3.64
S8C	4.16
K2V	3.53
Q21M	3.68
L5M	3.11
V23E	3.92
D12R	3.21
Q10V	3.29
Q16A	3.52
E3D	3.4
V20A	3.13
H18M	3.97
R14E	3.85
K24V	2.92
Q10D	4.1
Q16R	3.34
R19E	4.33
K24W	2.53
V23K	4.55
Q21R	3.71
G17Q	3.59
V20I	3.44
L4G	4.47
H18L	3.65
V23L	4.02
K24N	3.04
K24S	3.52
R14S	3.58
Q10M	3.27
C7T	4.18
A11L	3.46
H15V	2.95
P22D	4.11
C6A	3.61
K24E	3.81
C6M	3.74
L4I	2.52
V23S	3.36
A11R	3.85
Q16W	2.67
L4S	3.8
Q21S	3.96
H15N	3.33
L5E	4.08
C6E	4.3
A11T	4.25
